# System: Escherichia coli
# protocol: Induction of DNA photocleavage activity in Escherichia coli pBR322 plasmid assessed as nicked DNA form at 10 uM after 60 mins irradiation at 2.5 mW/cm2 by gel electrophoresis
quantity_name: Activity (%)

Look over these answered cases.
NCCCNCCCCN(CCCN)C(=O)CCCCNC(=O)c1ccc(-c2c3nc(c(-c4ccc(C(=O)NCCCCC(=O)N(CCCN)CCCCNCCCN)cc4)c4ccc([nH]4)c(-c4ccc(C(=O)NCCCCC(=O)N(CCCN)CCCCNCCCN)cc4)c4nc(c(-c5ccc(C(=O)NCCCCC(=O)N(CCCN)CCCCNCCCN)cc5)c5ccc2[nH]5)C=C4)C=C3)cc1 :: 51
NCCCCN(CCCN)C(=O)CCCCNC(=O)c1ccc(-c2c3nc(c(-c4ccc(C(=O)NCCCCC(=O)N(CCCN)CCCCN)cc4)c4ccc([nH]4)c(-c4ccc(C(=O)NCCCCC(=O)N(CCCN)CCCCN)cc4)c4nc(c(-c5ccc(C(=O)NCCCCC(=O)N(CCCN)CCCCN)cc5)c5ccc2[nH]5)C=C4)C=C3)cc1 :: 39
Cc1cc(C)c(-c2c3nc(c(-c4ccc(C(=O)NCCCCC(=O)N(CCCN)CCCCNCCCN)cc4)c4ccc([nH]4)c(-c4c(C)cc(C)cc4C)c4nc(c(-c5ccc(C(=O)NCCCCC(=O)N(CCCN)CCCCNCCCN)cc5)c5ccc2[nH]5)C=C4)C=C3)c(C)c1 :: 30
C=CC1=C(C)c2cc3[nH]c(cc4nc(cc5[nH]c(cc1n2)c(C)c5CCC(=O)NCCCCC(=O)N(CCCN)CCCCNCCCN)C(CCC(=O)NCCCCC(=O)N(CCCN)CCCCNCCCN)=C4C)c(C)c3C=C :: 93

P: Cc1cc(C)c(-c2c3nc(c(-c4ccc(C(=O)NCCCCC(=O)N(CCCN)CCCCN)cc4)c4ccc([nH]4)c(-c4c(C)cc(C)cc4C)c4nc(c(-c5ccc(C(=O)NCCCCC(=O)N(CCCN)CCCCN)cc5)c5ccc2[nH]5)C=C4)C=C3)c(C)c1
Q: C=CC1=C(C)c2cc3[nH]c(cc4nc(cc5[nH]c(cc1n2)c(C)c5CCC(=O)NCCCCC(=O)N(CCCN)CCCCN)C(CCC(=O)NCCCCC(=O)N(CCCN)CCCCN)=C4C)c(C)c3C=C
Q) Pick one, P or Q : lowest reported Activity. When you have decided, please share the label of that item.
A) P

----------
# Test system: Escherichia coli
# protocol: Induction of DNA photocleavage activity in Escherichia coli pBR322 plasmid assessed as supercoiled DNA form at 10 uM after 15 mins irradiation at 2.5 mW/cm2 by gel electrophoresis
quantity_name: Activity (%)

Look over these answered cases.
Cc1cc(C)c(-c2c3nc(c(-c4ccc(C(=O)NCCCCC(=O)N(CCCN)CCCCN)cc4)c4ccc([nH]4)c(-c4c(C)cc(C)cc4C)c4nc(c(-c5ccc(C(=O)NCCCCC(=O)N(CCCN)CCCCN)cc5)c5ccc2[nH]5)C=C4)C=C3)c(C)c1 :: 73
C=CC1=C(C)c2cc3[nH]c(cc4nc(cc5[nH]c(cc1n2)c(C)c5CCC(=O)NCCCCC(=O)N(CCCN)CCCCN)C(CCC(=O)NCCCCC(=O)N(CCCN)CCCCN)=C4C)c(C)c3C=C :: 46
NCCCCN(CCCN)C(=O)CCCCNC(=O)c1ccc(-c2c3nc(c(-c4ccc(C(=O)NCCCCC(=O)N(CCCN)CCCCN)cc4)c4ccc([nH]4)c(-c4ccc(C(=O)NCCCCC(=O)N(CCCN)CCCCN)cc4)c4nc(c(-c5ccc(C(=O)NCCCCC(=O)N(CCCN)CCCCN)cc5)c5ccc2[nH]5)C=C4)C=C3)cc1 :: 72
NCCCNCCCCN(CCCN)C(=O)CCCCNC(=O)c1ccc(-c2c3nc(c(-c4ccc(C(=O)NCCCCC(=O)N(CCCN)CCCCNCCCN)cc4)c4ccc([nH]4)c(-c4ccc(C(=O)NCCCCC(=O)N(CCCN)CCCCNCCCN)cc4)c4nc(c(-c5ccc(C(=O)NCCCCC(=O)N(CCCN)CCCCNCCCN)cc5)c5ccc2[nH]5)C=C4)C=C3)cc1 :: 66

a: Cc1cc(C)c(-c2c3nc(c(-c4ccc(C(=O)NCCCCC(=O)N(CCCN)CCCCNCCCN)cc4)c4ccc([nH]4)c(-c4c(C)cc(C)cc4C)c4nc(c(-c5ccc(C(=O)NCCCCC(=O)N(CCCN)CCCCNCCCN)cc5)c5ccc2[nH]5)C=C4)C=C3)c(C)c1
b: C=CC1=C(C)c2cc3[nH]c(cc4nc(cc5[nH]c(cc1n2)c(C)c5CCC(=O)NCCCCC(=O)N(CCCN)CCCCNCCCN)C(CCC(=O)NCCCCC(=O)N(CCCN)CCCCNCCCN)=C4C)c(C)c3C=C
Q) Pick one, a or b : lowest reported Activity. When you have decided, please share the label of that item.
A) b
(b: 45%, a: 70%)

----------
# System: Escherichia coli
# protocol: Induction of DNA photocleavage activity in Escherichia coli pBR322 plasmid assessed as nicked DNA form at 10 uM after 90 mins irradiation at 2.5 mW/cm2 by gel electrophoresis
quantity_name: Activity (%)

Cc1cc(C)c(-c2c3nc(c(-c4ccc(C(=O)NCCCCC(=O)N(CCCN)CCCCN)cc4)c4ccc([nH]4)c(-c4c(C)cc(C)cc4C)c4nc(c(-c5ccc(C(=O)NCCCCC(=O)N(CCCN)CCCCN)cc5)c5ccc2[nH]5)C=C4)C=C3)c(C)c1 :: 29
Cc1cc(C)c(-c2c3nc(c(-c4ccc(C(=O)NCCCCC(=O)N(CCCN)CCCCNCCCN)cc4)c4ccc([nH]4)c(-c4c(C)cc(C)cc4C)c4nc(c(-c5ccc(C(=O)NCCCCC(=O)N(CCCN)CCCCNCCCN)cc5)c5ccc2[nH]5)C=C4)C=C3)c(C)c1 :: 28

----------
# System: Escherichia coli
# protocol: Induction of DNA photocleavage activity in Escherichia coli pBR322 plasmid assessed as nicked DNA form at 10 uM by gel electrophoresis
quantity_name: Activity (%)

C=CC1=C(C)c2cc3[nH]c(cc4nc(cc5[nH]c(cc1n2)c(C)c5CCC(=O)NCCCCC(=O)N(CCCN)CCCCNCCCN)C(CCC(=O)NCCCCC(=O)N(CCCN)CCCCNCCCN)=C4C)c(C)c3C=C :: 34
C=CC1=C(C)c2cc3[nH]c(cc4nc(cc5[nH]c(cc1n2)c(C)c5CCC(=O)NCCCCC(=O)N(CCCN)CCCCN)C(CCC(=O)NCCCCC(=O)N(CCCN)CCCCN)=C4C)c(C)c3C=C :: 36
Cc1cc(C)c(-c2c3nc(c(-c4ccc(C(=O)NCCCCC(=O)N(CCCN)CCCCN)cc4)c4ccc([nH]4)c(-c4c(C)cc(C)cc4C)c4nc(c(-c5ccc(C(=O)NCCCCC(=O)N(CCCN)CCCCN)cc5)c5ccc2[nH]5)C=C4)C=C3)c(C)c1 :: 27
NCCCCN(CCCN)C(=O)CCCCNC(=O)c1ccc(-c2c3nc(c(-c4ccc(C(=O)NCCCCC(=O)N(CCCN)CCCCN)cc4)c4ccc([nH]4)c(-c4ccc(C(=O)NCCCCC(=O)N(CCCN)CCCCN)cc4)c4nc(c(-c5ccc(C(=O)NCCCCC(=O)N(CCCN)CCCCN)cc5)c5ccc2[nH]5)C=C4)C=C3)cc1 :: 16
NCCCNCCCCN(CCCN)C(=O)CCCCNC(=O)c1ccc(-c2c3nc(c(-c4ccc(C(=O)NCCCCC(=O)N(CCCN)CCCCNCCCN)cc4)c4ccc([nH]4)c(-c4ccc(C(=O)NCCCCC(=O)N(CCCN)CCCCNCCCN)cc4)c4nc(c(-c5ccc(C(=O)NCCCCC(=O)N(CCCN)CCCCNCCCN)cc5)c5ccc2[nH]5)C=C4)C=C3)cc1 :: 15
Cc1cc(C)c(-c2c3nc(c(-c4ccc(C(=O)NCCCCC(=O)N(CCCN)CCCCNCCCN)cc4)c4ccc([nH]4)c(-c4c(C)cc(C)cc4C)c4nc(c(-c5ccc(C(=O)NCCCCC(=O)N(CCCN)CCCCNCCCN)cc5)c5ccc2[nH]5)C=C4)C=C3)c(C)c1 :: 30

----------
# System: Escherichia coli
# protocol: Induction of DNA photocleavage activity in Escherichia coli pBR322 plasmid assessed as nicked DNA form at 10 uM after 15 mins irradiation at 2.5 mW/cm2 by gel electrophoresis
quantity_name: Activity (%)

Look over these answered cases.
C=CC1=C(C)c2cc3[nH]c(cc4nc(cc5[nH]c(cc1n2)c(C)c5CCC(=O)NCCCCC(=O)N(CCCN)CCCCNCCCN)C(CCC(=O)NCCCCC(=O)N(CCCN)CCCCNCCCN)=C4C)c(C)c3C=C :: 55
Cc1cc(C)c(-c2c3nc(c(-c4ccc(C(=O)NCCCCC(=O)N(CCCN)CCCCN)cc4)c4ccc([nH]4)c(-c4c(C)cc(C)cc4C)c4nc(c(-c5ccc(C(=O)NCCCCC(=O)N(CCCN)CCCCN)cc5)c5ccc2[nH]5)C=C4)C=C3)c(C)c1 :: 27
NCCCCN(CCCN)C(=O)CCCCNC(=O)c1ccc(-c2c3nc(c(-c4ccc(C(=O)NCCCCC(=O)N(CCCN)CCCCN)cc4)c4ccc([nH]4)c(-c4ccc(C(=O)NCCCCC(=O)N(CCCN)CCCCN)cc4)c4nc(c(-c5ccc(C(=O)NCCCCC(=O)N(CCCN)CCCCN)cc5)c5ccc2[nH]5)C=C4)C=C3)cc1 :: 28
NCCCNCCCCN(CCCN)C(=O)CCCCNC(=O)c1ccc(-c2c3nc(c(-c4ccc(C(=O)NCCCCC(=O)N(CCCN)CCCCNCCCN)cc4)c4ccc([nH]4)c(-c4ccc(C(=O)NCCCCC(=O)N(CCCN)CCCCNCCCN)cc4)c4nc(c(-c5ccc(C(=O)NCCCCC(=O)N(CCCN)CCCCNCCCN)cc5)c5ccc2[nH]5)C=C4)C=C3)cc1 :: 34

a: C=CC1=C(C)c2cc3[nH]c(cc4nc(cc5[nH]c(cc1n2)c(C)c5CCC(=O)NCCCCC(=O)N(CCCN)CCCCN)C(CCC(=O)NCCCCC(=O)N(CCCN)CCCCN)=C4C)c(C)c3C=C
b: Cc1cc(C)c(-c2c3nc(c(-c4ccc(C(=O)NCCCCC(=O)N(CCCN)CCCCNCCCN)cc4)c4ccc([nH]4)c(-c4c(C)cc(C)cc4C)c4nc(c(-c5ccc(C(=O)NCCCCC(=O)N(CCCN)CCCCNCCCN)cc5)c5ccc2[nH]5)C=C4)C=C3)c(C)c1
Q) Compare a and b by numeric Activity and name the larger one. When you have decided, please share the label of that item.
A) a
(a: 54%, b: 30%)

Reference source: ChEMBL document CHEMBL1140875
